Give IC50 for every item shown.
System: recombinant SARS-CoV-2 Main protease (Mpro) (Severe acute respiratory syndrome coronavirus 2 (2019-nCoV) (SARS-CoV-2), UniProt P0DTD1)
Method description: Cov Mpro Biochemical IC50 Assay
Condition label: recombinant SARS-CoV-2 Mpro, fluorogenic peptide substrate; read-out: MPro IC50
Record the value in nM, omitting the unit from your answer.

Exercise: Consider the molecule "O=c1[nH]c2cc(-c3c(Cl)cccc3-c3ccccc3)ccc2c(=O)n1-c1cncc2ccccc12" . State its measured IC50.
Solution: 388

Exercise: Consider the molecule "COc1c(C)cncc1-n1c(=O)[nH]c2cc(-c3ccccc3Cl)sc2c1=O" . State its measured IC50.
Solution: 16.4

Exercise: Consider the molecule "COc1cccc(Cl)c1-c1cc2[nH]c(=O)n(-c3cncc4ccccc34)c(=O)c2s1" . State its measured IC50.
Solution: 29.5

Exercise: Consider the molecule "Cc1cc(-c2cccc(Cl)c2-c2ccc3c(=O)n(-c4cncc5ccccc45)c(=O)[nH]c3c2)cn2ncnc12" . State its measured IC50.
Solution: 15.7

Exercise: Consider the molecule "COc1ccc(C#N)c(-c2cc3[nH]c(=O)n(-c4cncc5ccc(N6CC(F)(F)OC(F)(F)C6)cc45)c(=O)c3s2)c1" . State its measured IC50.
Solution: 23.8

Exercise: Consider the molecule "O=c1[nH]c2cc(-c3c(Cl)cccc3Cl)ccc2c(=O)n1-c1cncc2ccccc12" . State its measured IC50.
Solution: 1590

Exercise: Consider the molecule "O=c1[nH]c2cc(-c3c(Cl)cccc3OCc3ccnnc3)ccc2c(=O)n1-c1cncc2ccccc12" . State its measured IC50.
Solution: 11.4

Exercise: Consider the molecule "O=c1[nH]c2cc(-c3c(Cl)cccc3-c3cncc(N4CCOCC4)c3)ccc2c(=O)n1-c1cncc2ccccc12" . State its measured IC50.
Solution: 5.27
